- System Name: Histone-lysine N-methyltransferase SMYD1 (Homo sapiens) (UniProt Q8NB12)
- Sequence (Q8NB12 whole entry): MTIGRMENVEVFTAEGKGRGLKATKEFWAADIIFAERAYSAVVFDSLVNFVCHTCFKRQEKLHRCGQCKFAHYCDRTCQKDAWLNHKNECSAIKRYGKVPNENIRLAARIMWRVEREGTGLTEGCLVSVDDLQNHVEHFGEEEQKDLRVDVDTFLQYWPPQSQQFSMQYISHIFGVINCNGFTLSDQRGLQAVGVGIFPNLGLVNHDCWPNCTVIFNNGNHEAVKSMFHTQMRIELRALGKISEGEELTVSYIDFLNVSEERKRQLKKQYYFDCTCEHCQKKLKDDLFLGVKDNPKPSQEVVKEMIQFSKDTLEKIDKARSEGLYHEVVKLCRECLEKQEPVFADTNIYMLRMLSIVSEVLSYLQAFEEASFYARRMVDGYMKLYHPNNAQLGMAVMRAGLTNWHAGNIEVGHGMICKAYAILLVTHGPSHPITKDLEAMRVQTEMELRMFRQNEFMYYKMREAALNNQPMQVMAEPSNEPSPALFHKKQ
- Procedure Details: Binding affinity to recombinant human SMYD1 expressed in Sf9 insect cells assessed as change in melting temperature at 120 uM by SYPRO Orange staining based thermal shift assay
Measured Parameter: deltaTm (K)

CCCCCNC(=O)c1ccc2c(c1)NC(=O)CC(C)N2C(=O)c1ccc(C)cc1 (configuration not stated): 0.2
CCCCCNC(=O)c1ccc2c(c1)NC(=O)CC(C)N2C(=O)C1CCCC1 (configuration not stated): -0.1
CCCCNC(=O)c1ccc2c(c1)NC(=O)CC(C)N2C(=O)c1ccccc1F (configuration not stated): 0
CCCCNC(=O)c1ccc2c(c1)NC(=O)CC(C)N2C(=O)CCC1CCCC1 (configuration not stated): -0.2
CCCCCNC(=O)c1ccc2c(c1)NC(=O)CC(C)N2C(=O)c1ccccc1F (configuration not stated): -0.2

a. CCCNC(=O)c1ccc2c(c1)NC(=O)CC(C)N2C(=O)c1cccs1 (configuration not stated)
b. CCCCNC(=O)c1ccc2c(c1)NC(=O)CC(C)N2C(=O)c1cccc(F)c1 (configuration not stated)
Between the entries labelled a and b , which has a larger deltaTm value on record? Label of pick, please.
b
(b: 0 K, a: -0.2 K)

----------
- System Name: Histone-lysine N-methyltransferase SMYD3 (Homo sapiens)
- Procedure Details: Binding affinity to biotinylated SMYD3 (unknown origin) assessed as dissociation constant using S-adenosyl-l-methionine as substrate by surface plasmon resonance analysis
Measured Parameter: Kd (nM)
Numbers only here, please. The scale is nM.

# returns recorded Kd (system: Histone-lysine N-methyltransferase SMYD3 (Homo sapiens)) for C[C@H]1CC(=O)Nc2cc(C(=O)NCCC3CC3)ccc2N1C(=O)N1CC2CC2C1 (stereo partly specified)
97

----------
- System Name: Histone-lysine N-methyltransferase SMYD3 (Homo sapiens, UniProt Q9H7B4)
- Procedure Details: Binding affinity to recombinant human SMYD3 expressed in Escherichia coli assessed as dissociation constant by isothermal titration calorimetry
Measured Parameter: Kd (µM)
Output spec: scalar in µM, unitless text.

Consider the compound shown here: C[C@H]1CC(=O)Nc2cc(C(=O)NCCC3CC3)ccc2N1C(=O)N1CC2CC2C1 (stereo partly specified) What is its recorded Kd?
0.133

----------
- Procedure Details: Kinetic solubility of the compound at pH 6.5
- Assay type: physicochemical
- Experimental Conditions: buffer, read-out: Kinetic_solubility
Measured Parameter: solubility kinetic (µg/mL)

C[C@H]1CC(=O)Nc2cc(C(=O)NCCC3CC3)ccc2N1C(=O)N(C)C1CCNCC1: 257
C[C@H]1CC(=O)Nc2cc(C(=O)NCCC3CC3)ccc2N1C(=O)N1CCC(N)CC1: 318
C[C@H]1CC(=O)Nc2cc(C(=O)NCCC3CC3)ccc2N1C(=O)N1CC[C@H](N)C1.Cl: 294
C[C@H]1CC(=O)Nc2cc(C(=O)NCCC3CC3)ccc2N1C(=O)N1CC[C@@H](N)C1.Cl: 330

P. CC1CC(=O)Nc2cc(C(=O)NCCC3CCC3)ccc2N1C(=O)c1ccccc1 (racemic)
Q. C[C@H]1CC(=O)Nc2cc(C(=O)NCCC3CC3)ccc2N1C(=O)N1CCNCC1
Higher solubility kinetic between P and Q ? // respond with label for picked entry
Q

----------
- System Name: Epidermal growth factor receptor (Homo sapiens, UniProt P00533)
- Sequence (P00533 whole entry): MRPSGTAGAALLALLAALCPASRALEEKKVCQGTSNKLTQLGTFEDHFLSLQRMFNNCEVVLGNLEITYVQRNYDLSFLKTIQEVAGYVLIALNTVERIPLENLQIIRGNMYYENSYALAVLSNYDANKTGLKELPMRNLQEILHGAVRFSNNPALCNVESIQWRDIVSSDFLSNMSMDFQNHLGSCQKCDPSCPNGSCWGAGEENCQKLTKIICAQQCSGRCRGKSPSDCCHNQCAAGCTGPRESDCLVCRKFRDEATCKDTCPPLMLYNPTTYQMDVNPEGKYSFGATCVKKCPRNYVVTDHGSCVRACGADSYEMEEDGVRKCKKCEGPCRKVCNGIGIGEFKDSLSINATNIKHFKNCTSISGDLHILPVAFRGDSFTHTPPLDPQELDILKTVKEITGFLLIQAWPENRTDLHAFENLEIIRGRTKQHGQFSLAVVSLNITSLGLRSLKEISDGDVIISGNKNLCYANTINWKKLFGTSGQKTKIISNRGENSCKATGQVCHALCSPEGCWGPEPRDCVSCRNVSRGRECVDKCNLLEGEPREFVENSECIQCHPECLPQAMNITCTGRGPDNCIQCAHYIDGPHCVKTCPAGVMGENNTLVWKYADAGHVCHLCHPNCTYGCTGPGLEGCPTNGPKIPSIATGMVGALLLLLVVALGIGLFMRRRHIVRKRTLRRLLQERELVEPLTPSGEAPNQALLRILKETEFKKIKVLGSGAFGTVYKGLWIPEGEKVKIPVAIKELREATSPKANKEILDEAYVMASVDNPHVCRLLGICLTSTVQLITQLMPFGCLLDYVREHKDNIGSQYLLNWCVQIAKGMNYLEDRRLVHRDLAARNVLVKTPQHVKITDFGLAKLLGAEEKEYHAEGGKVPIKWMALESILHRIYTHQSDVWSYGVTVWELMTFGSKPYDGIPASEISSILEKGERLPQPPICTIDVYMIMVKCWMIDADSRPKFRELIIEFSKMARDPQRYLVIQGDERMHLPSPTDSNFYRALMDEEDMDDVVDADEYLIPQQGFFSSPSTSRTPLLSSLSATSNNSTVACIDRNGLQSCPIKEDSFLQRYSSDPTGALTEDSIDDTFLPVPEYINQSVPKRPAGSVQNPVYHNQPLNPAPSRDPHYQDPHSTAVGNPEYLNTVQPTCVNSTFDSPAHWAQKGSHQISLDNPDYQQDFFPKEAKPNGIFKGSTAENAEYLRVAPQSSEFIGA
pIC50: −log10 of the molar value.
Measured Parameter: pIC50

Need pIC50, item C[C@H]1CC(=O)Nc2cc(C(=O)NCCC3CC3)ccc2N1C(=O)N1CC2CC2C1 (stereo partly specified)
< 4.70

----------
- System Name: Dual specificity mitogen-activated protein kinase kinase 5 (Homo sapiens)
- Sequence (Q13163 whole entry): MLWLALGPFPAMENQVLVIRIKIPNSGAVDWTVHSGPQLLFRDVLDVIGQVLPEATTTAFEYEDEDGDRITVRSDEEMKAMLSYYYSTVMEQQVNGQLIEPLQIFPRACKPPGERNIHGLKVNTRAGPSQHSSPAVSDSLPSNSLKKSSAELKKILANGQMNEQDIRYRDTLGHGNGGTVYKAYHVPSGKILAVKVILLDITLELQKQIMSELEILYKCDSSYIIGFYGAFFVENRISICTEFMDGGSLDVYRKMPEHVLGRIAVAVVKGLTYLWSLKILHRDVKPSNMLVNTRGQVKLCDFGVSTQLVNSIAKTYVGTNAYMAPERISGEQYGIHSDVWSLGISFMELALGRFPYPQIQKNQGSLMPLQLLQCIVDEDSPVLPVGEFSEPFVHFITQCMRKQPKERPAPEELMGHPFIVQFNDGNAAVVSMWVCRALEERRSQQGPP
- Procedure Details: Inhibition of MEK5 (unknown origin) by competition binding assay
pIC50: −log10 of the molar value.
Measured Parameter: pIC50

Kindly state the measured pIC50 obtained for C[C@H]1CC(=O)Nc2cc(C(=O)NCCC3CC3)ccc2N1C(=O)N1CC2CC2C1 (stereo partly specified) with Dual specificity mitogen-activated protein kinase kinase 5 (Homo sapiens).
< 4.70

----------
- System Name: Mitogen-activated protein kinase kinase kinase kinase 1 (Homo sapiens)
- Sequence (Q92918 whole entry): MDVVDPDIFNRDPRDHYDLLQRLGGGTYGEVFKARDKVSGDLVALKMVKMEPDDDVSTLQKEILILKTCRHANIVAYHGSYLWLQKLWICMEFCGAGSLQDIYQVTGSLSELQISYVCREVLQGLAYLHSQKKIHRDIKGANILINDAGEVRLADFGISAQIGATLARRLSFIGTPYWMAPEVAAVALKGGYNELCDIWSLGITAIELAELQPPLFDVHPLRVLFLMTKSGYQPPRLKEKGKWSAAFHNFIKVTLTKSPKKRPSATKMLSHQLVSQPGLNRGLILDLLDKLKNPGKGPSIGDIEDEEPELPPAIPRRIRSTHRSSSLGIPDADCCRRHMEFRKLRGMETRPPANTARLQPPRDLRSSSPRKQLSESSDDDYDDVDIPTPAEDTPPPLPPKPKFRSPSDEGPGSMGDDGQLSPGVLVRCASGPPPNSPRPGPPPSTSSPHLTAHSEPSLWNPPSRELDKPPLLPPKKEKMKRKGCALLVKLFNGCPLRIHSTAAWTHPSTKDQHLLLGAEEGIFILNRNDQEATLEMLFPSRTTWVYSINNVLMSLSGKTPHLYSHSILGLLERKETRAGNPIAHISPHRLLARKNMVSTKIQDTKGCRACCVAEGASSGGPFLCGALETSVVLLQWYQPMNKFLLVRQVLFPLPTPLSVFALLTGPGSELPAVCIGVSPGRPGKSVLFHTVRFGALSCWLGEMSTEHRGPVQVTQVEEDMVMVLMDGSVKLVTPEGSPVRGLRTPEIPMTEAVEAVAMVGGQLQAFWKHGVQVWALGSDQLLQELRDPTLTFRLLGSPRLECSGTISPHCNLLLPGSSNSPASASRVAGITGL
- Procedure Details: Inhibition of MAP4K1 (unknown origin) by competition binding assay
Measured Parameter: IC50

IC50 lookup needed for C[C@H]1CC(=O)Nc2cc(C(=O)NCCC3CC3)ccc2N1C(=O)N1CC2CC2C1 (stereo partly specified) , thanks.
> 20 µM

----------
- System Name: Casein kinase I isoform alpha (Homo sapiens, UniProt P48729)
- Procedure Details: Inhibition of CSNK1A1 (unknown origin)
pIC50: −log10 of the molar value.
Measured Parameter: pIC50

Query: pIC50; subject: C[C@H]1CC(=O)Nc2cc(C(=O)NCCC3CC3)ccc2N1C(=O)N1CC2CC2C1 (stereo partly specified)
< 4.70

----------
- Test system: HT-29
- Procedure Details: Antiproliferative activity against human HT-29 cells assessed as inhibition of cell viability measured for 3 to 5 days by alamar blue staining based assay
- Type: functional
Measured Parameter: IC50

Provide the documented IC50 with HT-29 as the system for C[C@H]1CC(=O)Nc2cc(C(=O)NCCC3CC3)ccc2N1C(=O)N1CC2CC2C1 (stereo partly specified)
> 10 µM

----------
- System Name: Histone-lysine N-methyltransferase SMYD3 (Homo sapiens, UniProt Q9H7B4)
- Procedure Details: Binding affinity to recombinant human SMYD3 expressed in Escherichia coli assessed as catalytic inhibition using DYDNPIFEKFGKGGTYPRRYHVSYHGK-Biotin as substrate by scintillation proximity assay
Measured Parameter: IC50 (nM)

// known answers, use as guide
C[C@H]1CC(=O)Nc2cc(C(=O)NCCC3CC3)ccc2N1C(=O)N1CCCNCC1: 54.2
CCCCNC(=O)c1ccc2c(c1)NC(=O)CC(C)N2C(=O)CCC1CCCC1 (centres undefined): 18000
CCN1CCN(C(=O)N2c3ccc(C(=O)NCCC4CC4)cc3NC(=O)C[C@@H]2C)CC1: 459
CCCCCNC(=O)c1ccc2c(c1)NC(=O)CC(C)N2C(=O)c1ccc(C)cc1 (centres undefined): 22000

A. CCCNC(=O)c1ccc2c(c1)NC(=O)CC(C)N2C(=O)c1cccs1 (centres undefined)
B. C[C@H]1CC(=O)Nc2cc(C(=O)NCCC3CC3)ccc2N1C(=O)N(C)C1CCNCC1
C. CCCCNC(=O)c1ccc2c(c1)NC(=O)CC(C)N2C(=O)c1ccccc1F (centres undefined)
D. CC1CC(=O)Nc2cc(C(=O)NCCC3CC3)ccc2N1C(=O)c1ccccc1 (racemic)
E. C[C@H]1CC(=O)Nc2cc(C(=O)NCCC3CC3)ccc2N1C(=O)N1CC[C@@H](N)C1.Cl
// sort entries: IC50, high to low Please, when replying, give the labels in the order that was requested.
A, C, D, E, B
(A: 18000 nM, C: 12000 nM, D: 1970 nM, E: 832 nM, B: 493 nM)

----------
- System Name: MAP kinase-interacting serine/threonine-protein kinase 1 (Homo sapiens)
- Sequence (Q9BUB5 whole entry): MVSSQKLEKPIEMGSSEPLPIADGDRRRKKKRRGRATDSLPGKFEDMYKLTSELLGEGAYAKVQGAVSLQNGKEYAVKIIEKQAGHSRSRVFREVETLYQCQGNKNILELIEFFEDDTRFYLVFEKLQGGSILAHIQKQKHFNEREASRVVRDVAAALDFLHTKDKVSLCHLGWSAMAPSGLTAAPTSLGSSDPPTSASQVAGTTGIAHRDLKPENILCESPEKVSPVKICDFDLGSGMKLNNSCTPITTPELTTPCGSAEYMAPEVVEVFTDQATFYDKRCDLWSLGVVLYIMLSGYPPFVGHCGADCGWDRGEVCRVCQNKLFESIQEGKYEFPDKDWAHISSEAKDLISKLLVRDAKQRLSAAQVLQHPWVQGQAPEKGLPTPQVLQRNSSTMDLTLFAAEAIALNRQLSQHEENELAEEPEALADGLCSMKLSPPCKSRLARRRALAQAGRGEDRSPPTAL
Measured Parameter: IC50

Can you look up the measured IC50 of C[C@H]1CC(=O)Nc2cc(C(=O)NCCC3CC3)ccc2N1C(=O)N1CC2CC2C1 (stereo partly specified) for me?
> 20 µM

----------
- System Name: Vascular endothelial growth factor receptor 3 (Homo sapiens, UniProt P35916)
- Sequence (P35916 whole entry): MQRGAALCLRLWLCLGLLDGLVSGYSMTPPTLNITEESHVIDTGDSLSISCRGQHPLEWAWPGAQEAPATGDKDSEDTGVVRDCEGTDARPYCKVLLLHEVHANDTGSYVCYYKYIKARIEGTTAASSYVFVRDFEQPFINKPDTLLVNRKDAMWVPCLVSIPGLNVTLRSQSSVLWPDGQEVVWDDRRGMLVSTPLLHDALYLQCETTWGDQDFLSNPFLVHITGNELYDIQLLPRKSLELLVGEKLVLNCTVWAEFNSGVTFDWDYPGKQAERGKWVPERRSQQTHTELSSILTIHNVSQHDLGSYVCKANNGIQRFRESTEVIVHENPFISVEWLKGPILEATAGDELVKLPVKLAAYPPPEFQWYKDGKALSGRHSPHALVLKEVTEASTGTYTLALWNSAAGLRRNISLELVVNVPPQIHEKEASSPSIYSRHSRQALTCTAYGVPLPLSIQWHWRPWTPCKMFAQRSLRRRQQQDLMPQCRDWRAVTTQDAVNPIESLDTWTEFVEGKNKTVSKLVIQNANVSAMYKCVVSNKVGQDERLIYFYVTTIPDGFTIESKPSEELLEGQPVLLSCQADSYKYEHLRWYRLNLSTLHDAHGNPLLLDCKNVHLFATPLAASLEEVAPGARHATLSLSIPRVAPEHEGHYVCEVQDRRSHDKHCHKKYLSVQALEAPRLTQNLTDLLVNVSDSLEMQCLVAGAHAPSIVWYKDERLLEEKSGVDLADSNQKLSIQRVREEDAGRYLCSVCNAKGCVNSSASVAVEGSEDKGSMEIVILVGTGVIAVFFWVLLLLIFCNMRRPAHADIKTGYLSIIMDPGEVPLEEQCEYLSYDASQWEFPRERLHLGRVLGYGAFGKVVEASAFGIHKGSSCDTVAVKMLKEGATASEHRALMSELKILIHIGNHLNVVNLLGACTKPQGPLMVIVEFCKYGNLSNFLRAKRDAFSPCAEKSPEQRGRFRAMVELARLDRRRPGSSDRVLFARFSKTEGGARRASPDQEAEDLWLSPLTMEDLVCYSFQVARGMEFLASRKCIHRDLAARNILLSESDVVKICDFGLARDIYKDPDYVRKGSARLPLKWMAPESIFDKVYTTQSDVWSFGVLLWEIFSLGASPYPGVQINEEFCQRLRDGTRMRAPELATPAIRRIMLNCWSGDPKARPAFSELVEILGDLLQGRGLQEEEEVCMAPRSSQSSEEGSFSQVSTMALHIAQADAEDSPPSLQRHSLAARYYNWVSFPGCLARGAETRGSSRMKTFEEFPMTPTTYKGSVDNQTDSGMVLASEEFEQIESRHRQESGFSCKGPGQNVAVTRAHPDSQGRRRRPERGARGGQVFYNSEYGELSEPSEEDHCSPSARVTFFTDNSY
Measured Parameter: IC50

So what IC50 did C[C@H]1CC(=O)Nc2cc(C(=O)NCCC3CC3)ccc2N1C(=O)N1CC2CC2C1 (stereo partly specified) get with Vascular endothelial growth factor receptor 3 (Homo sapiens, UniProt P35916)?
> 20 µM

----------
- System Name: Mitogen-activated protein kinase 7 (Homo sapiens, UniProt Q13164)
- Procedure Details: Inhibition of GST-tagged ERK5 catalytic domain (unknown origin) in presence of ATP
Measured Parameter: IC50

Given the entry C[C@H]1CC(=O)Nc2cc(C(=O)NCCC3CC3)ccc2N1C(=O)N1CC2CC2C1 (stereo partly specified) , report its measured IC50.
> 20 µM

----------
- System Name: Mitotic checkpoint serine/threonine-protein kinase BUB1 (Homo sapiens, UniProt O43683)
- Procedure Details: Inhibition of Bub1 (unknown origin) in presence of ATP
Measured Parameter: IC50

Entry C[C@H]1CC(=O)Nc2cc(C(=O)NCCC3CC3)ccc2N1C(=O)N1CC2CC2C1 (stereo partly specified) , system Mitotic checkpoint serine/threonine-protein kinase BUB1 (Homo sapiens, UniProt O43683): what IC50 was measured?
> 20 µM

----------
- System Name: Histone-lysine N-methyltransferase SMYD3 (Homo sapiens) (UniProt Q9H7B4)
- Sequence (whole entry): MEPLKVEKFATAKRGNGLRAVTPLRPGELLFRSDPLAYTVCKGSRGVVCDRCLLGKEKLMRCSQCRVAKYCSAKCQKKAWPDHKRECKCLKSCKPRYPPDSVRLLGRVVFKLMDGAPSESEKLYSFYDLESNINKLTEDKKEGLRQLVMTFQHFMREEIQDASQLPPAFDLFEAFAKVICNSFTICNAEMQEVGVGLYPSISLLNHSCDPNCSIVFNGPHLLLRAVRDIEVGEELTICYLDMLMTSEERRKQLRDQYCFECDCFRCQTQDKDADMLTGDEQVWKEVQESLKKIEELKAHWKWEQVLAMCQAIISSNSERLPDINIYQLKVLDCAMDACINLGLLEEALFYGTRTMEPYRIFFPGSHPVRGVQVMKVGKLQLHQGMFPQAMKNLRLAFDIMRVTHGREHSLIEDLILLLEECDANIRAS
- Experimental Conditions: dose 120.0 µM
- Description: Binding affinity to recombinant human SMYD3 expressed in Escherichia coli assessed as change in melting temperature at 120 uM by SYPRO Orange staining based thermal shift assay
Measured Parameter: deltaTm (K)

Worked cases, answers included:
C[C@H]1CC(=O)Nc2cc(C(=O)NCCC3CC3)ccc2N1C(=O)N1CCC(F)(F)C1: 6.16
C[C@H]1CC(=O)Nc2cc(C(=O)NCCC3CC3)ccc2N1C(=O)N1CCN(CC(F)(F)F)CC1: 5.26
C[C@H]1CC(=O)Nc2cc(C(=O)NCCC3CC3)ccc2N1C(=O)N1CCNCC1: 7.42

P. C[C@H]1CC(=O)Nc2cc(C(=O)NCCC3CC3)ccc2N1C(=O)N1CCC(F)(F)CC1
Q. C[C@H]1CC(=O)Nc2cc(C(=O)NCCC3CC3)ccc2N1C(=O)N1CCCNCC1
R. CCCCNC(=O)c1ccc2c(c1)NC(=O)CC(C)N2C(=O)c1ccccc1F (stereo unspecified)
Provide the items ranked by increasing deltaTm. The labels, placed in the requested order, form the answer.
R, P, Q

I. C[C@H]1CC(=O)Nc2cc(C(=O)NCCC3CC3)ccc2N1C(=O)N1CCN(CCO)CC1
II. C[C@H]1CC(=O)Nc2cc(C(=O)NCCC3CC3)ccc2N1C(=O)N1CC2CC2C1 (stereo partly specified)
Sorting by deltaTm in descending order, would I or II appear first? Pick one and reply with its label.
II

Reference source: ChEMBL document CHEMBL5661986
